B1: Arabidopsis thaliana RidA, construct starting from S68 (AtRidA-S68), wild type [Arabidopsis thaliana] / itself (parent)
chain: STEKAPAALGPYSQAIKANNLVFLSGVLGLIPETGKFVSESVEDQTEQVLKNMGEILKASGADYSSVVKTTIMLADLADFKTVNEIYAKYFPAPSPARSTYQVAALPLNAKIEIECIATL

Variants of: B1
Assay: size-exclusion chromatography (Superdex-75)
Details: with itself; 0.5 mg protein loaded; read off a plot
measured_attribute: screen value
Write the figure, then the unit, nothing else.

STEKAPAALGPYSQAIKANNLVFLSGVLGLIPETGKFVSESVEDQTEQVLKNMGEILKASGADYSSVVRTTIMLADLADFKTVNEIYAKYFPAPSPARSTYQVAALPLNAKIEIECIATL [chain 1 K69R]
11.4 mL
STEKAPAALGPYSQAIKANNLVFLSGVLGLIPETGKFVSESVEDQTEQVLKNMGEILKASGADYSSVVKTTIMLADLADFKTVNEIYAKYFPAPSPARATYQVAALPLNAKIEIECIATL [chain 1 S99A]
11.6 mL
STEKAPAALGPYSQAIKANNLVFLSGVLGLIPETGKFVSESVEDQTEQVLKNMGEILKASGADYSSVVATTIMLADLADFKTVNEIYAKYFPAPSPARSTYQVAALPLNAKIEIECIATL [chain 1 K69A]
12 mL

Below are some variants; for each one, tell me its screen value.
1. STEKAPAALGPYSQAIKANNLVFLSGVLGLIPETGKFVSESVEDQTEQVLKNMGEILKASGADYSSVVKTTIMLADLADFKTVNEIYAKYFPAPSPARSTYQVAALPLNAKIEIACIATL [chain 1 E115A]
2. STEKAPAALGPYAQAIKANNLVFLSGVLGLIPETGKFVSESVEDQTEQVLKNMGEILKASGADYSSVVKTTIMLADLADFKTVNEIYAKYFPAPSPARSTYQVAALPLNAKIEIECIATL [chain 1 S13A]

**Result**
1. 11.6 mL
2. 11.4 mL
